target.of.assay: USP1/UAF1 (Homo sapiens (Human))
protocol.summary: USP1/UAF1 activity, ubiquitin-rhodamine110-glycine (Ub-Rho) assay
Format: biochemical
study.conditions: 0.1 nM USP1/UAF1, 100 nM Ub-Rho, 120 minutes; read-out: IC50 (nM), inhibitory effects on USP1/UAF1 activity
value.kind: IC50 (nM)

Worked cases, IC50 given:
IN: Would you kindly share the measured IC50 for "COc1ncnc(C2CC2)c1-c1nc2cncc(Cc3ccc(-c4nc(C(F)(F)F)cn4C)cc3)n2n1" ?
OUT: 147

IN: Sample "COc1ncnc(C2CC2)c1-c1nc2c(Cc3ccc(-c4nc(C(F)(F)F)cn4C4CC4)cc3)nccn2n1" — what was its IC50?
OUT: 34.6

I = COc1ncnc(C2CC2)c1-c1nc2cncc(Cc3ccc(-c4nc(C(F)(F)F)cn4C4CC4)cc3)n2n1
II = COc1ncnc(C2CC2)c1-c1nc2c(Cc3ccc(-c4nc(C(F)(F)F)cn4C4CC4)cc3)cncn2n1
IN: Lowest IC50? choose I or II Pick one; state its label.
OUT: I
(I: 38.9 nM, II: 111 nM)

----------
target.of.assay: USP1/UAF1 (Homo sapiens (Human), UniProt O94782)
Sequence (O94782 whole entry): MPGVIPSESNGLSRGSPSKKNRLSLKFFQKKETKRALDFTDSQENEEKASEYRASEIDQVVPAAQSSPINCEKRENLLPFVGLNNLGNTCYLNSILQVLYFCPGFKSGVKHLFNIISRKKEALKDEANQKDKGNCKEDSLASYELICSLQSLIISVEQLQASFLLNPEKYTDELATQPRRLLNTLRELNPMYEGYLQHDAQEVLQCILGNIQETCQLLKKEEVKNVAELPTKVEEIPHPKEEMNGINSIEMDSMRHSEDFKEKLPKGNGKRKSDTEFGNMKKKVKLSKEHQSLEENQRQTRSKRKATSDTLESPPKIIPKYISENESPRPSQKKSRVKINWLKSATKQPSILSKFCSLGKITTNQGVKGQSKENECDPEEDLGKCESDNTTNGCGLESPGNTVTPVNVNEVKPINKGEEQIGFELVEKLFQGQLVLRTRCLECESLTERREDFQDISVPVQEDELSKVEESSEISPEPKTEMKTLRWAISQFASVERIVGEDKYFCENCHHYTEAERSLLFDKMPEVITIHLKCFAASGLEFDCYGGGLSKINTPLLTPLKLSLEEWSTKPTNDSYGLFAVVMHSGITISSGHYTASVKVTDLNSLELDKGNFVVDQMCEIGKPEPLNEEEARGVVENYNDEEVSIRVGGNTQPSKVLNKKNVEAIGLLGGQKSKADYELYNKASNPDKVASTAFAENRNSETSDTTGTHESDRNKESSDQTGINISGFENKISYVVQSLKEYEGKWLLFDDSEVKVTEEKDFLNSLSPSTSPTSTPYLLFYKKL
Sequence (Q8TAF3 whole entry partner): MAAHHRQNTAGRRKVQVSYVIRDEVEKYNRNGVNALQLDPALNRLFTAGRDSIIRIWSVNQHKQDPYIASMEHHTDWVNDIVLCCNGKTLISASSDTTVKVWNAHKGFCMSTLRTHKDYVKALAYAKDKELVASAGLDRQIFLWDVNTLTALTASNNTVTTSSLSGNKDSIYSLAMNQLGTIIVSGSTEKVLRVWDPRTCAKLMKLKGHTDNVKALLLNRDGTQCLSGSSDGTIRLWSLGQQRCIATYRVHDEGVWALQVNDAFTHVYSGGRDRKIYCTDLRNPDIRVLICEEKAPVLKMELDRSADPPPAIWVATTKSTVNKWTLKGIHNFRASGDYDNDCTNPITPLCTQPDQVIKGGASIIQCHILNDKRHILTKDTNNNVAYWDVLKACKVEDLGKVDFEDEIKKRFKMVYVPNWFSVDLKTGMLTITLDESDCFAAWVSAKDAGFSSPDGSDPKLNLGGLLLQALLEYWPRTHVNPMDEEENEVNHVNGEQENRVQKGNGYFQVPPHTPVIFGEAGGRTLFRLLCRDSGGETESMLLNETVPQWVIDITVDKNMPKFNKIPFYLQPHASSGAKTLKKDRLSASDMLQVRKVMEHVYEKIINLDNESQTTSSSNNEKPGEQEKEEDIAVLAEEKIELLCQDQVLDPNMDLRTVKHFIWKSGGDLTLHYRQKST
protocol.summary: USP1/UAF1 activity, ubiquitin-rhodamine110-glycine (Ub-Rho) assay
Format: biochemical
study.conditions: 0.1 nM USP1/UAF1, 100 nM Ub-Rho, 120 minutes; read-out: IC50 (nM), inhibitory effects on USP1/UAF1 activity
value.kind: IC50 (nM)

As a guide, the following entries are already answered.
IN: Which value of IC50 has been reported for "COc1ncnc(C2CC2)c1-c1nc2cncc(Cc3ccc(-c4nc(C(F)(F)F)cn4C)c(F)c3)n2n1" in the records?
OUT: 78.3

IN: Which value of IC50 has been reported for "COc1ncnc(C2CC2)c1-c1nc2c(Cc3ccc(-c4nc(C(F)(F)F)cn4C)cc3)cncn2n1" in the records?
OUT: 138

IN: Entry "CCn1cc(C(F)(F)F)nc1-c1c(F)cc(Cc2nccn3nc(-c4c(OC)ncnc4C4CC4)nc23)cc1F" has what IC50?
OUT: 57.5

IN: Endpoint output: IC50 of "COc1ncnc(C2CC2)c1-c1nc2nccc(Cc3ccc(-c4nc(C(F)(F)F)cn4C)cc3)n2n1" . Value?
OUT: 175

a = COc1ncnc(C2CC2)c1-c1nc2cccc(Cc3ccc(-c4nc(C(F)(F)F)cn4C4CC4)cc3)n2n1
b = Cc1cnn(C(C)C)c1-c1nc2c(Cc3ccc(-c4nc(C(F)(F)F)cn4C)cc3)cccn2n1
IN: Lower IC50: a or b ? Reply briefly: the label of your chosen item.
OUT: a

I = CCn1cc(C(F)(F)F)nc1-c1c(F)cc(Cc2cccc3nc(-c4c(OC)ncnc4C4CC4)nn23)cc1OC
II = COc1ncnc(C2CC2)c1-c1nc2c(Cc3ccc(-c4nc(C(F)(F)F)cn4C(C)C)cc3)cccn2n1
IN: Quick one: lower IC50, I or II ? Let me know the label of the one you choose.
OUT: I
(I: 18.8 nM, II: 66.6 nM)

----------
target.of.assay: USP1/UAF1 (Homo sapiens (Human))
protocol.summary: USP1/UAF1 activity, ubiquitin-rhodamine110-glycine (Ub-Rho) assay
Assay type: biochemical
study.conditions: 0.1 nM USP1/UAF1, 100 nM Ub-Rho, 120 minutes; read-out: IC50 (nM), inhibitory effects on USP1/UAF1 activity
value.kind: IC50 (nM)

IN: I would be grateful if you could share the reported IC50 for "COc1ncnc(C2CC2)c1-c1nc2ccnc(Cc3ccc(-c4nc(C(F)(F)F)cn4C)c(F)c3)n2n1" .
OUT: 34.2

P = COc1ncnc(C2CC2)c1-c1nc2ccnc(Cc3ccc(-c4nc(C(F)(F)F)cn4C)cc3)n2n1
Q = COc1ncnc(C2CC2)c1-c1nc2c(Cc3ccc(-n4nc(C(F)(F)F)cc4C)cc3)cccn2n1
IN: # argmax over IC50 for candidates P and Q Give the chosen item's label as your response.
OUT: Q
(Q: 460 nM, P: 16.1 nM)
